Listed below: IC50 values for each entry.
measured-on: UniProtKB Q92633
Sequence (Q92633 whole entry): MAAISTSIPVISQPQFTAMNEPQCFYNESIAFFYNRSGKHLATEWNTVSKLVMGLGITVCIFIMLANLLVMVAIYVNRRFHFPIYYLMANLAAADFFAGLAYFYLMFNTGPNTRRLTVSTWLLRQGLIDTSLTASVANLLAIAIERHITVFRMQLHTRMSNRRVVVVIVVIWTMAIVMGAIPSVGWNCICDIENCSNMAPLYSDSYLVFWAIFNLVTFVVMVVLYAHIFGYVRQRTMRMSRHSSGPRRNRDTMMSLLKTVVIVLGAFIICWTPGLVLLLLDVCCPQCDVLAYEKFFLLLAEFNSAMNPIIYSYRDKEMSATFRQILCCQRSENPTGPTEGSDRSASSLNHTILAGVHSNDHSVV
test-method-notes: Determination of Edg-2 receptor inhibition by FLIPR measurements (LPA-mediated calcium liberation)
condition-set: CHO cells overexpressing human Edg-2 receptor, LPA 100 nM, fluo-4 calcium fluorescence; read-out: Inhibitory concentrations IC50 for inhibition of the Edg-2 receptor

Use these answered entries as a reference point.
COc1ccc(C(=O)NC2(C(=O)O)CCC(C(C)(C)C)CC2)cc1OCCc1cccc(C)c1 (stereo not drawn) [Example 371]
100 to 1000 nM
CCc1ncc(C(=O)N[C@]2(C(=O)O)CC[C@@H](C)CC2)cc1OCCc1cccc(Cl)c1 [Example 436]
100 to 1000 nM

Record request: IC50 value, item CC[C@H]1CC[C@](NC(=O)c2ccc(OC)c(-c3cccc(OC(F)(F)F)c3)c2)(C(=O)O)CC1 [Example 327]
< 100 nM
